Overview of reported Increase of sweetness across a group of compounds:
# Test system: trained sensory panel (n=20)
# assay.notes: Paired comparison tests (Duo test): sweetness increase of 5% sucrose solution in water
# Type: in vivo
# Parameters: unit not given here
# experimental.parameters: dosage HG 50, compound 9 10, 41 5, 57 3, 73 5, 89 5 mg/kg

Answered examples (5):
compound: CCCCCCC(=O)OC[C@H]1O[C@@H](Oc2cc(O)c(C(=O)CCc3ccc(OC)c(O)c3)c(O)c2)[C@H](O)[C@@H](O)[C@@H]1O [Compound 89, 6″-O-Heptanoyl-HG]
parameter: Increase of sweetness
test.value: 27.7
--
compound: COc1ccc(CCC(=O)c2c(O)cc(O[C@H]3O[C@@H](CO)[C@H](O)[C@@H](O)[C@@H]3O)cc2O)cc1O [HG, reference compound]
parameter: Increase of sweetness
test.value: 34.6
--
compound: COc1ccc(CCC(=O)c2c(O)cc(O[C@@H]3O[C@H](COC(C)=O)[C@@H](O)[C@H](O)[C@H]3O)cc2O)cc1O [Compound 9, 6″-O-Acetyl-HG]
parameter: Increase of sweetness
test.value: 33.1
--
compound: CCCCC(=O)OC[C@H]1O[C@@H](Oc2cc(O)c(C(=O)CCc3ccc(OC)c(O)c3)c(O)c2)[C@H](O)[C@@H](O)[C@@H]1O [Compound 57, 6″-O-Pentanoyl-HG]
parameter: Increase of sweetness
test.value: 25.2
--
compound: CCCCCC(=O)OC[C@H]1O[C@@H](Oc2cc(O)c(C(=O)CCc3ccc(OC)c(O)c3)c(O)c2)[C@H](O)[C@@H](O)[C@@H]1O [Compound 73, 6″-O-Hexanoyl-HG]
parameter: Increase of sweetness
test.value: 23.1

Note: attention shifts to another entry.
Incoming: Bench note: what Increase of sweetness did CCCC(=O)OC[C@H]1O[C@@H](Oc2cc(O)c(C(=O)CCc3ccc(OC)c(O)c3)c(O)c2)[C@H](O)[C@@H](O)[C@@H]1O [Compound 41, 6″-O-Butanoyl-HG] show?
Outgoing: 24.4

Sourced from patent US20260283205A1
